B1: TRIM14 (parent)
chain: REQADSCREQLDIMNDLSNRVWSI

Variants of: B1
Experiment Notes: protein stability index of a GFP-peptide fusion (GPS, HEK-293T) (PSI 1-6); higher = more stable;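 also: lentivirally expressed fusions sorted by FACS into six bins by GFP to DsRed ratio, PSI derived from sequencing read proportions per bin multiplied by bin number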
Condition Set: c terminus: a fixed tail appended
Below: a set of entries, each annotated with reported protein stability index.

These recorded examples may help you get a feel for the data.
Var: D16W
Assay Result: 2.04
//
Var: D16T
Assay Result: 1.99

Problem: Supply reported protein stability index belonging to this variant: D16Y
Solution: 2.01
